Assay Explanation: Pharmacokinetics in SD rats after IV and PO administration
Format: in vivo
Test Settings: male, SD, rat, plasma, iv, 2 mg/kg, IV 2 mpk, read-out: Starting concentration C0
Measured Quantity: C0
I'd appreciate it if you wrote the number followed by its unit.

Which C0 value belongs to O=C(O)CSc1nnc(Br)n1-c1c(Cl)cc(C2CC2)c2ccccc12 (single isomer, unassigned) [(−)-WX001] ? 11.7 µM

---

Assay Explanation: Pharmacokinetics in SD rats after IV and PO administration
Type: in vivo
Test Settings: rat, PO 10 mpk; read-out: Peak concentration Cmax
Measured Quantity: Cmax
I'd appreciate it if you wrote the number followed by its unit.

Which Cmax value belongs to O=C(O)CSc1nnc(Br)n1-c1ccc(C2CC2)c2ccccc12 (racemic) [(±)-Lesinurad, Lesinurad, reference compound] ? 14.5 µM

---

Readings of IC50 for the listed compounds
Target Under Test: URAT-1 (Homo sapiens)
Sequence (Q96S37 1-553): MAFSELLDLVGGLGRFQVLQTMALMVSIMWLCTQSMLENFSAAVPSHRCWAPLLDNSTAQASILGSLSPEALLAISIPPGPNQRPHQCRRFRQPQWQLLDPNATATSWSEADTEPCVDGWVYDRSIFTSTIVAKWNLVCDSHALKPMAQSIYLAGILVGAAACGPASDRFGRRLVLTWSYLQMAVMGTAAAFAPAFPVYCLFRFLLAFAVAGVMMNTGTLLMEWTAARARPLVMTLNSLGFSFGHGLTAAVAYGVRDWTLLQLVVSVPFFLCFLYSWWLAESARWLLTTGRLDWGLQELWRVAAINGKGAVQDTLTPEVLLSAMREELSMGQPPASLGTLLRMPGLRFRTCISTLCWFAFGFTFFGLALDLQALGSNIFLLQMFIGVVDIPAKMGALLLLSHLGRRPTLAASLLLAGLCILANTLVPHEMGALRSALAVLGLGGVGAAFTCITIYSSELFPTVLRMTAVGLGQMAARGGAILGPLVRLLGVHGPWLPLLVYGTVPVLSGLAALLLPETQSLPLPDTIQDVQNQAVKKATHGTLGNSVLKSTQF
Assay Explanation: Inhibition of 14C-labelled uric acid transport in MDCK cell line stably transfected with the URAT-1 gene
Test Settings: MDCK cells stably transfected with URAT-1, 14C uric acid 50 uM; read-out: IC50 against URAT-1
The figure you give is taken to be in µM; do not add the unit.

>>> df
                                   compound      target_under_test  result_value
0  CC(C)(Sc1nnc(Br)n1-c1c(Cl)cc(C2CC2)c2ccccc12)C(=O)O (single isomer, unassigned) [(−)-WX004]  URAT-1 (Homo sapiens)           1.1
1  CC(C)(Sc1nnc(Br)n1-c1c(Cl)cc(C2CC2)c2ccccc12)C(=O)O (single isomer, unassigned) [(+)-WX005]  URAT-1 (Homo sapiens)           1.4
2  O=C(O)CSc1nnc(Br)n1-c1c(Cl)cc(C2CC2)c2ccccc12 (racemic) [(±)-WX003]  URAT-1 (Homo sapiens)          10.4

Read the next record carefully.
Which IC50 value belongs to O=C(O)CSc1nnc(Br)n1-c1c(Cl)cc(C2CC2)c2ccccc12 (single isomer, unassigned) [(−)-WX001] ? 8

---

Assay Explanation: Pharmacokinetics in SD rats after IV and PO administration
Format: in vivo
Test Settings: male, SD, rat, plasma, po, 10 mg/kg, PO 10 mpk, read-out: Detention time MRT0-inf
Measured Quantity: MRT inf (h)
The figure you give is taken to be in h; do not add the unit.

Which MRT inf value belongs to O=C(O)CSc1nnc(Br)n1-c1c(Cl)cc(C2CC2)c2ccccc12 (single isomer, unassigned) [(−)-WX001] ? 7.18

The measurements presented in this section are drawn from patent US10633351B2.
